# ASSAY SYSTEM: Human Siglec-9-Fc (recombinant human Siglec-9 extracellular domain Q18-G348 fused to human IgG1 Fc) (human)
# Sequence (chain, as listed by the source limits assumed): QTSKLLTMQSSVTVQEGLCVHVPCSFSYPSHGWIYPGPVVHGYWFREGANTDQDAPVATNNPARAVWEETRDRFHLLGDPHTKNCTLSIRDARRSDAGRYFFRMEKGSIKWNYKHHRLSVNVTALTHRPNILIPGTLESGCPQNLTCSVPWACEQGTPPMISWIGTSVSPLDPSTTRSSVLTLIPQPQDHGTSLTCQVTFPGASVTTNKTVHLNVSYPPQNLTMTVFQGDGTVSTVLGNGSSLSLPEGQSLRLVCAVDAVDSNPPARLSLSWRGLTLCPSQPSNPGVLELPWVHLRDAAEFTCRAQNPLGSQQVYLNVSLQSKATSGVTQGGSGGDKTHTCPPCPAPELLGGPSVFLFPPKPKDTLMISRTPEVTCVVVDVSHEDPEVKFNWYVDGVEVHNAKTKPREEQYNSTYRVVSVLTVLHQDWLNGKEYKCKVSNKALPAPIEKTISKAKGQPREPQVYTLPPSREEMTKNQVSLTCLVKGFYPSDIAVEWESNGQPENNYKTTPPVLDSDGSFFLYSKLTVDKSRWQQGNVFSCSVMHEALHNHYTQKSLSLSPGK
# PROTOCOL NOTES: BLI binning, hSiglec-9-Fc on AHC sensor; competitor bound first (row): 12G23
REPORTED PROPERTY: maximum binding nm shift (nm)
Field format: number, assumed nm, no unit text.

q: Please look up its maximum binding nm shift: 12P18 (antibody, V domains shown) VH: QVQLQQSGAELVRPGASVTLSCKASGYTFTDYEMHWVKQTPVHGLEWIGAIDPEAGGTAYNRKFKGKAILTADKSSSTAYMELRSLTSEDSAVYYCTNLGRDYWGQGTTLTVSS VL: DIVMSQSPSSLAVSVGEKVTMSCKSSQSLLYSSTQKNYLAWYQQKPGQSPKRLIYWASTRESGVPDRFTGSGSGTDFTLTISSVKAEDLAVYYCQQYYSYWTFGGGTKLEIK
a: 0.439
